Data origin: the supplement of paper PMC7125110

B1: glmS ribozyme (parent)
chain: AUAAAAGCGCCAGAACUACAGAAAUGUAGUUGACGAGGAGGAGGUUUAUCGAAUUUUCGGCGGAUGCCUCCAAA

Variants of: B1
Test Method Notes: self-cleavage kobs at 40 uM GlcN6P; higher = faster cleavage; RNA array
Run Conditions: with glucosamine-6-phosphate
This sample holds only a part of the variants without activity.
Readout Type: self-cleavage kobs at 40 uM GlcN6P

Complete the entry with self-cleavage kobs at 40 uM GlcN6P for A6C C11U < 1e-05 s⁻¹

Specify measured self-cleavage kobs at 40 uM GlcN6P for A12G U27C G29U . < 1e-05 s⁻¹

Answer with the recorded self-cleavage kobs at 40 uM GlcN6P for the variant listed here: A36C G37A C58G < 1e-05 s⁻¹
